PROCEDURE_TEXT: Oral bioavailability in Sprague-Dawley rat at 2.48 mg/kg, po
Format: ADME, organism-based
MEASUREMENT_PARAMETERS: in vivo
REPORTED_METRIC: bioavailability (%)
Return type: number; implicit unit %.

Specify bioavailability for CC1(NC2=NS(=O)(=O)c3sc(Br)cc3N2)CC1 and stop. 96

---

PROCEDURE_TEXT: Clearance in Sprague-Dawley rat at 2.3 mg/kg, po or 1.24 mg/kg, iv
Type: ADME, organism-based
MEASUREMENT_PARAMETERS: in vivo
REPORTED_METRIC: clearance (mL/min/kg)
# value in mL/min/kg; strip the unit string

Please give the documented clearance of CC(C)(NC1=NS(=O)(=O)c2sc(Cl)cc2N1)c1ccccc1 7.3
